Reference source for all entries: ChEMBL document CHEMBL3352239

molecular target: Neuronal acetylcholine receptor; alpha4/beta2 (Homo sapiens, UniProt P17787+P43681); assay: Inactivation of alpha4beta2* nAChR high affinity site (unknown origin) expressed in xenopus oocytes by electrophysiology method; format: cell-based
measurementLabel: pIC50
Quick note: pIC50 means taking -log10 of the concentration in moles per liter.

INPUT: Provide the reported pIC50 (system: Neuronal acetylcholine receptor; alpha4/beta2 (Homo sapiens, UniProt P17787+P43681)) for O=c1cccc2n1C[C@@H]1CNC[C@H]2C1 [CYTISINICLINE]
OUTPUT: 7.30

* * *

# reported pKi; entries follow
target: Neuronal acetylcholine receptor subunit alpha-7 (Homo sapiens, UniProt P36544); test: Partial agonist activity at alpha7 nAChR (unknown origin)
// field semantics: pKi = negative decimal log of concentration (mol/L)

compound=Clc1cncc(N2CCCNCC2)c1 measvalue=6.40

INPUT: Please report the measured pKi for O=c1cccc2n1C[C@@H]1CNC[C@H]2C1 [CYTISINICLINE]
OUTPUT: 5.23

* * *

molecular target: Neuronal acetylcholine receptor; alpha3/beta4 (Rattus norvegicus, UniProt P04757+P12392); assay: Antagonist activity at rat alpha3beta4 nAChR
measurementLabel: pIC50
Expect pIC50 as a plain number equal to -log10 of the molar concentration.

INPUT: Give me measured pIC50, please, for this compound: CO[C@H]1CC=C2CCN3CCC4=C(CC(=O)OC4)[C@]23C1
OUTPUT: 4.64

* * *

Listed below: IC50 values for each entry.
target: Neuronal acetylcholine receptor subunit alpha-7 (Homo sapiens); assay: Non-competitive antagonist activity at alpha7 nAChR (unknown origin)
Number in µM, nothing else.

compound="CC(NC(C)(C)C)C(=O)c1cccc(Cl)c1 (configuration not stated) [BUPROPION]" measurementlabel=IC50 unitsofmeasure=µM measvalue=7.9

Proceed to the following item.
INPUT: Could you please provide reported IC50 for CNC1(C)[C@H]2CC[C@H](C2)C1(C)C (mixture of isomers) ? Thanks!
OUTPUT: 1.6

* * *

target: Neuronal acetylcholine receptor; alpha4/beta2 (Homo sapiens, UniProt P17787+P43681); assay: Activation of alpha4beta2* nAChR low affinity site (unknown origin) expressed in xenopus oocytes by electrophysiology method; format: cell-based
measurementLabel: pEC50
Formally, pEC50 is defined as -log10 of the concentration c, with c in mol/L.

smilesdata=O=c1ccc(Br)c2n1C[C@H]1CNC[C@@H]2C1 measurementlabel=pEC50 measvalue=7.82

Here's the next entry for you.
INPUT: Answer briefly: pEC50 recorded on Neuronal acetylcholine receptor; alpha4/beta2 (Homo sapiens, UniProt P17787+P43681) for O=c1c(-c2ccccn2)ccc2n1C[C@@H]1CNC[C@@H]2C1
OUTPUT: 7.51

* * *

target: Neuronal acetylcholine receptor; alpha4/beta2 (Homo sapiens, UniProt P17787+P43681); assay: Non-competitive antagonist activity at alpha4beta2 nAChR (unknown origin); format: protein-complex assay
measurementLabel: pIC50
Kindly note that pIC50 refers to -log10 of the concentration in mol/L and answer with the value alone.

INPUT: Provide pIC50 value for the following molecule: CNC1(C)[C@H]2CC[C@H](C2)C1(C)C (mixture of isomers)
OUTPUT: 6.22

* * *

biological target: Neuronal acetylcholine receptor; alpha4/beta2 (Rattus norvegicus, UniProt P09483+P12390); assay: Antagonist activity at rat alpha4beta2 nAChR
measurementLabel: pIC50
Keep in mind that pIC50 stands for -log10 of concentration in molar terms.

INPUT: Please report the measured pIC50 for CO[C@H]1CC=C2CCN3CCC4=C(CC(=O)OC4)[C@]23C1
OUTPUT: 7.52
